Collected self-cleavage values appear next to each entry.
B1: CPEB3 Ribozyme (parent)
chain: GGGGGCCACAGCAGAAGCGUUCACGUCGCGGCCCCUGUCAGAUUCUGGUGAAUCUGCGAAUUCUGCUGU

Variants of: B1
assay-procedure: self-cleavage, relative activity (ratio to wild type); higher = more cleavage; co-transcriptional
reported-metric: self-cleavage

1. G41A U67A : 0.756
2. C35U U62G : 0.804
3. C12U A13C : 0.629
4. U20A A52G : 0.117
5. G48U U67G : 1.05
6. C24G U64G : 0.338
7. A60C U67G : 0.37
8. A16C U21G : 0.0655
9. G19U C39U : 0.22
10. A13U A42U : 0.494
11. G3C G19A : 0.0368
12. G31U C34G : 0.237
13. G2A U26C : 0.114
14. C18A G28U : 0.889
15. G37C G48U : 0.288
16. U36G A52U : 0.271
17. G58A U69A : 0.99
18. U26A A60G : 0.478
19. G14A U67A : 0.635
20. G11C G47C : 0.896
21. A60G U62G : 0.687
22. U38C U69A : 0.988
23. C33G A60U : 0.328
24. G3C U55G : 0.0373
25. G3U G50C : 0.145
26. G30A A52U : 0.806
27. G19U C32A : 0.281
28. G48A U61C : 0.852
29. G3U C22U : 0.047
30. C57A U64C : 0.401
31. G2A U62A : 0.11
32. C22G G65U : 0.212
33. A40U G65A : 0.352
34. A10U U46G : 1.01
35. C6A C18G : 0.145
36. G3A C57U : 0.0942
37. C35U U67C : 0.979
38. G11C U46A : 0.866
39. C22U U38G : 0.141
40. G14A C57A : 0.264
41. U21A A23C : 0.969
42. G3A C35G : 0.0971
43. G5C C34G : 0.22
44. A60G U69G : 1.01
45. G2C G4C : 0.0427
46. G19U G48U : 0.681
